# assay-system: 5-HT2 (Rattus norvegicus)
# Construct: Four rats, male Wistar (Mol:Wist) SPF rats weighing 170-240 g; from tissue; host or cells: living male Wistar (Mol:Wist) SPF rats (in vivo, endogenous receptor)
# Sequence (P14842 whole entry): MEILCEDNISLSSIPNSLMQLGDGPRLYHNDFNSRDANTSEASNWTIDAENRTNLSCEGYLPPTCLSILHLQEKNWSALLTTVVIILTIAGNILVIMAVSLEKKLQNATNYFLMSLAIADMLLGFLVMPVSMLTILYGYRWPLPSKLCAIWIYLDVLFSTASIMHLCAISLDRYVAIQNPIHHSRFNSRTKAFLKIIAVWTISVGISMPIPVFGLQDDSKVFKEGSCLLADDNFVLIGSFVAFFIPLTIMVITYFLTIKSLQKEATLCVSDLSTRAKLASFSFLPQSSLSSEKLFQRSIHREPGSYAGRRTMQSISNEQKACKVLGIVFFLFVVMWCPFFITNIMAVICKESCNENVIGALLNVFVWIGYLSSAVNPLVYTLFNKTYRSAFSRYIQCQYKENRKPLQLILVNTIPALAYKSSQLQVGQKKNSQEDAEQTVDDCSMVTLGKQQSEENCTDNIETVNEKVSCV
# experiment-notes: quipazine inhibition (quipazine-induced head twitches in rats)
# Format: in vivo
# cond: sc, 2 h, read-out: Quipazine inhibition ED50, 2h (sc)
This section presents compounds with their documented ED50 values.

{"compound": "Cc1ccc2c(c1)N(c1ccc(F)cc1)CC2C1CCN(CCN2CCN(C(C)C)C2=O)CC1 (stereo not drawn) [Compound 20a]", "ED50": "0.49 µmol/kg"}
{"compound": "Cc1ccc2c(N3CCN(CCN4CCN(C(C)C)C4=O)CC3)cn(-c3ccc(F)cc3)c2c1", "ED50": "0.04 µmol/kg"}
{"compound": "Cc1ccc2c(C3CCN(CCN4CCNC4=O)CC3)cn(-c3ccc(F)cc3)c2c1", "ED50": "0.02 µmol/kg"}

* * *

# assay-system: dopamine D-2 receptors (Rattus norvegicus)
# Construct: striatal tissue is dissected and weighed; from tissue; host or cells: corpus striatum membranes of male Wistar rats
# Sequence (P61169 whole entry): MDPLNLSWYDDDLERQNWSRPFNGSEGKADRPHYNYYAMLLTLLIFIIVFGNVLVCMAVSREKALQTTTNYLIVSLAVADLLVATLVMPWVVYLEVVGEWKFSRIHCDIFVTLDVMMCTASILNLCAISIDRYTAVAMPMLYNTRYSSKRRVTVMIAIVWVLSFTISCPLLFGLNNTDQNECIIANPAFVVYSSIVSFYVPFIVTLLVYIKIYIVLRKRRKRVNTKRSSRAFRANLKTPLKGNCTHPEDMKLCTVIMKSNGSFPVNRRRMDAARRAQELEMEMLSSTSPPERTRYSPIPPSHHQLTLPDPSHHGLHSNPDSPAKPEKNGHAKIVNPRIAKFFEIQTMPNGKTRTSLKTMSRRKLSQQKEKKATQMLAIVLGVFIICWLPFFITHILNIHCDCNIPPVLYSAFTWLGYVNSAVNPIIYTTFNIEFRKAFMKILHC
# experiment-notes: inhibition of 3H-spiperone binding to dopamine D-2 receptors in rat corpus striatum in vitro
# cond: 3H-spiperone 0.5 nM, rat corpus striatum membranes, in vitro; read-out: Binding IC50, 3H Spi.
assay-endpoint: IC50 (nM)

{"molecule": "O=C1CCCN1CCN1CCC(c2cn(-c3ccc(F)cc3)c3cc(C(F)(F)F)ccc23)CC1", "assay-system": "dopamine D-2 receptors (Rattus norvegicus)", "units-symbol": "nM", "value-reported": 300}
{"molecule": "O=C1NCCN1CCN1CCC(c2cn(-c3ccccc3)c3cc(Cl)ccc23)CC1 [Compound 15m]", "assay-system": "dopamine D-2 receptors (Rattus norvegicus)", "units-symbol": "nM", "value-reported": 410}
{"molecule": "COc1ccc2c(C3CCN(CCN4CCN(C(C)C)C4=O)CC3)cn(-c3ccc(F)cc3)c2c1", "assay-system": "dopamine D-2 receptors (Rattus norvegicus)", "units-symbol": "nM", "value-reported": 710}
{"molecule": "Cc1ccc2c(C3CCN(CCN4CCN(C(C)C)C4=O)CC3)cn(-c3cccc(C(F)(F)F)c3)c2c1 [Compound 15i]", "assay-system": "dopamine D-2 receptors (Rattus norvegicus)", "units-symbol": "nM", "value-reported": 3200}
{"molecule": "CC(C)N1CCN(CCN2CCN(c3cn(-c4ccc(F)cc4)c4cc(Cl)ccc34)CC2)C1=O", "assay-system": "dopamine D-2 receptors (Rattus norvegicus)", "units-symbol": "nM", "value-reported": 81}
{"molecule": "Cc1c(C2CCN(CCN3CCNC3=O)CC2)c2ccccc2n1-c1ccc(F)cc1 [Compound 24c]", "assay-system": "dopamine D-2 receptors (Rattus norvegicus)", "units-symbol": "nM", "value-reported": 380}
{"molecule": "Cc1ccc2c(C3CCN(CCN4CCN(C(C)C)C4=O)CC3)cn(-c3cccc(F)c3)c2c1 [Compound 15g]", "assay-system": "dopamine D-2 receptors (Rattus norvegicus)", "units-symbol": "nM", "value-reported": 3200}
{"molecule": "Cc1ccc2c(C3CCN(CCN4CCN(C(C)C)C4=O)CC3)cn(-c3ccc(Cl)cc3)c2c1 [Compound 15h]", "assay-system": "dopamine D-2 receptors (Rattus norvegicus)", "units-symbol": "nM", "value-reported": 620}

* * *

Recorded IC50 values (UniProt P14842) are given below.

{"molecule": "CC(C)N1CCN(CCN2CCC(c3cn(-c4ccccc4)c4cc(Cl)ccc34)CC2)C1=O [Compound 15k]", "assay-system": "UniProt P14842", "units-symbol": "nM", "IC50": 4.5}
{"molecule": "N#Cc1ccc2c(C3CCN(CCN4CCNC4=O)CC3)cn(-c3ccc(F)cc3)c2c1 [Compound 5j]", "assay-system": "UniProt P14842", "units-symbol": "nM", "IC50": 13}
{"molecule": "CCN(CCN1CCC(c2cn(-c3ccc(F)cc3)c3cc(Cl)ccc23)CC1)C(=O)NC(C)C [Compound 9d]", "assay-system": "UniProt P14842", "units-symbol": "nM", "IC50": 1.9}
{"molecule": "CC(=O)NCCN1CCC(c2cn(-c3ccc(F)cc3)c3cc(Cl)ccc23)CC1 [Compound 9j]", "assay-system": "UniProt P14842", "units-symbol": "nM", "IC50": 11}
{"molecule": "O=C1CCCN1CCN1CCC(c2cn(-c3ccc(F)cc3)c3cc(C(F)(F)F)ccc23)CC1 [Compound 4e]", "assay-system": "UniProt P14842", "units-symbol": "nM", "IC50": 2.8}
{"molecule": "CC(C)N1CCN(CCN2CCC(c3cn(-c4ccc(F)cc4)c4cc(Cl)c(Cl)cc34)CC2)C1=O [Compound 5e]", "assay-system": "UniProt P14842", "units-symbol": "nM", "IC50": 3.4}
{"molecule": "CNC(=S)NCCN1CCC(c2cn(-c3ccc(F)cc3)c3cc(Cl)ccc23)CC1 [Compound 9c]", "assay-system": "UniProt P14842", "units-symbol": "nM", "IC50": 12}
{"molecule": "O=C1NCCN1CCN1CCC(c2cn(-c3ccc(F)cc3)c3cc(C(F)(F)F)ccc23)CC1 [Compound 4d]", "assay-system": "UniProt P14842", "units-symbol": "nM", "IC50": 1.7}
{"molecule": "Cc1c(C2=CCN(CCN3CCNC3=O)CC2)c2ccccc2n1-c1ccc(F)cc1 [Compound 24b]", "assay-system": "UniProt P14842", "units-symbol": "nM", "IC50": 1}
{"molecule": "Cc1c(C2CCN(CCN3CCNC3=O)CC2)c2ccccc2n1-c1ccc(F)cc1 [Compound 24c]", "assay-system": "UniProt P14842", "units-symbol": "nM", "IC50": 0.69}
{"molecule": "Cc1ccc2c(C3CCN(CCN4CCN(C(C)C)C4=O)CC3)cn(-c3cccs3)c2c1 [Compound 15b]", "assay-system": "UniProt P14842", "units-symbol": "nM", "IC50": 6.7}
{"molecule": "OCCN1CCN(c2cn(-c3ccc(F)cc3)c3ccc(C(F)(F)F)cc23)CC1 [Lu 21-152, reference compound]", "assay-system": "UniProt P14842", "units-symbol": "nM", "IC50": 1.4}
{"molecule": "O=C1N(CCO)CCN1CCN1CCC(c2cn(-c3ccc(F)cc3)c3cc(Cl)ccc23)CC1 [Compound 18a]", "assay-system": "UniProt P14842", "units-symbol": "nM", "IC50": 2.5}

* * *

# assay-system: α1 adrenoceptors
# experiment-notes: inhibition of 3H-prazosin binding to α1 adrenoceptors in rat brain in vitro
# cond: 3H-prazosin 0.25 nM, rat brain membranes, read-out: Binding IC50, 3H Praz.
pIC50: −log10 of the molar value.
Classification field: Criterion met = pIC50 at or over 7; Criterion not met = pIC50 under 7.

{"molecule": "Cc1ccc2c(C3CCN(CCN4CCNC4=O)CC3)cn(-c3ccc(F)cc3)c2c1 [Compound 4g]", "assigned-label": "Criterion met"}
{"molecule": "OCCN1CCN(c2cn(-c3ccc(F)cc3)c3ccc(C(F)(F)F)cc23)CC1 [Lu 21-152, reference compound]", "assigned-label": "Criterion met"}
{"molecule": "CC(C)c1ccc2c(C3CCN(CCN4CCN(C(C)C)C4=O)CC3)cn(-c3ccc(F)cc3)c2c1 [Compound 5c]", "assigned-label": "Criterion not met"}
{"molecule": "CN(C)CCSc1nc2ccccc2cc1-c1ccccc1 [ICI 169369, reference compound]", "assigned-label": "Criterion not met"}
{"molecule": "Cc1ccc2c(C3CCN(CCN4CCN(C(C)C)C4=O)CC3)cn(-c3cccc(F)c3)c2c1 [Compound 15g]", "assigned-label": "Criterion not met"}
{"molecule": "Cc1ccc2c(C3CCN(CCN4CCN(C(C)C)C4=O)CC3)cn(-c3ccc(Cl)cc3)c2c1 [Compound 15h]", "assigned-label": "Criterion not met"}
{"molecule": "O=C1CCCN1CCN1CCC(c2cn(-c3ccc(F)cc3)c3cc(C(F)(F)F)ccc23)CC1 [Compound 4e]", "assigned-label": "Criterion met"}

* * *

Each entry below carries its recorded IC50.
# assay-system: α1 adrenoceptors
# experiment-notes: inhibition of 3H-prazosin binding to α1 adrenoceptors in rat brain in vitro
# cond: 3H-prazosin 0.25 nM, rat brain membranes, read-out: Binding IC50, 3H Praz.

{"compound": "Cc1ccc2c(C3CCN(CCNC(=O)NC(C)C)CC3)cn(-c3ccc(F)cc3)c2c1 [Compound 9a]", "IC50": "0.076 µM"}
{"compound": "Cc1ccc2c(C3CCN(CCN4CCN(C(C)C)C4=O)CC3)cn(-c3ccccc3)c2c1 [Compound 15a]", "IC50": "0.12 µM"}
{"compound": "CC(C)N1CCN(CCN2CCC(c3cn(-c4ccc(F)cc4)c4cc(C(F)(F)F)ccc34)CC2)C1=O [Compound 4c]", "IC50": "0.091 µM"}
{"compound": "COc1ccc2c(C3CCN(CCN4CCN(C(C)C)C4=O)CC3)cn(-c3ccc(F)cc3)c2c1 [Compound 4i]", "IC50": "0.14 µM"}
{"compound": "CC(C)N1CCN(CCN2CCC(c3cn(-c4ccc(F)cc4)c4cc(Cl)ccc34)CC2)C1=S [Compound 13a]", "IC50": "0.11 µM"}
{"compound": "CC(C)N1CCN(CCN2CCC(c3cn(-c4ccccc4F)c4cc(Cl)ccc34)CC2)C1=O [Compound 15j]", "IC50": "0.12 µM"}
{"compound": "Cc1ccc2c(C3CCN(CCN4CCN(C(C)C)C4=O)CC3)cn(-c3ccc(F)cc3)c2c1 [Compound 5a]", "IC50": "0.085 µM"}
